Assign Release Rate to each entry below.
method_description: Release rate of pesticides from controlled release devices, one inch squares of 1/8 inch sheets (Example 3)
Type: physicochemical
reported_conditions: Polyurethane 2200, 10 percent pesticide
Please respond with the number in μg/cm^2/day and leave the unit unwritten.

Task item: Please indicate Release Rate recorded for Cc1c(F)c(F)c(COC(=O)[C@@H]2[C@H](/C=C(\Cl)C(F)(F)F)C2(C)C)c(F)c1F (racemic) [Tefluthrin]
Reply: 25.0

Task item: Provide measured Release Rate value, entry: CC1(C)C(C=C(Cl)Cl)C1C(=O)OC(C#N)c1cccc(Oc2ccccc2)c1 (stereo not shown) [Cypermethrin]
Reply: 0.7

Task item: For the compound CC1(C)C(C=C(Cl)Cl)C1C(=O)OCc1cccc(Oc2ccccc2)c1 (stereo not shown) [Permethrin] , report Release Rate.
Reply: 1.3

Task item: Find the measured Release Rate of CC1(C)[C@H](C(=O)O[C@H](C#N)c2cccc(Oc3ccccc3)c2)[C@@H]1/C=C(\Cl)C(F)(F)F (racemic) [Lambda cyhalothrin] and report it.
Reply: 0.7

Value source: patent US20060201053A1
